I'd appreciate it if you could supply IVIS values for the items below.
Test system: mice
Assay: In vivo delivery of FLuc-mRNA lipid nanoparticles in mice, in vivo imaging (IVIS)
Conditions: IV, spleen; DMG-PEG2000:DSPC:Chol:compound 1.40:11.15:38.95:48.50, N/P 30; Fluc-mRNA
Give bare numbers.

CCCCCCCCCCOC(=O)C(O)CN(CCCN(CC(O)C(=O)OCCCCCCCCCC)CC(O)C(=O)OCCCCCCCCCC)CCCN(CC(O)C(=O)OCCCCCCCCCC)CC(O)C(=O)OCCCCCCCCCC (centres unmarked) [Compound L0339]
2.87E+07
CCCCCCC(CCCCCC)C(=O)OCCCCOC(=O)C(O)CN(CCN(C)CCN(CC(O)C(=O)OCCCCOC(=O)C(CCCCCC)CCCCCC)CC(O)C(=O)OCCCCOC(=O)C(CCCCCC)CCCCCC)CC(O)C(=O)OCCCCOC(=O)C(CCCCCC)CCCCCC (centres unmarked) [Compound L0297]
5.59E+07
CCCCCCCCC(CCCCCC)C(=O)OCCCCCCOC(=O)C(O)CN(CCCN(C)CCCN(CC(O)C(=O)OCCCCCCOC(=O)C(CCCCCC)CCCCCCCC)CC(O)C(=O)OCCCCCCOC(=O)C(CCCCCC)CCCCCCCC)CC(O)C(=O)OCCCCCCOC(=O)C(CCCCCC)CCCCCCCC (centres unmarked) [Compound L0295]
4.37E+07
CCCCCCC(CCCCCC)C(=O)OCCCCCCOC(=O)C(O)CN(C)CCN(C)CCN(C)CC(O)C(=O)OCCCCCCOC(=O)C(CCCCCC)CCCCCC (centres unmarked) [Compound L0291]
1.89E+06

Please look at the following molecule next.
Asked: Which IVIS reading was recorded for the molecule CCCCCCCCCCCCNCC(O)CN(CCCCCN(C)CCCCCN(CC(O)CNCCCCCCCCCCCC)CC(O)C(=O)NCCCCCCCCCCCC)CC(O)C(=O)NCCCCCCCCCCCC (centres unmarked) [Compound L0303] ?
Given back: 5.38E+06

---

I'd appreciate it if you could supply IVIS values for the items below.
System: mice
Assay: In vivo delivery of FLuc-mRNA lipid nanoparticles in mice, in vivo imaging (IVIS)
Details: IV, spleen; DMG-PEG2000:DSPC:Chol:compound 1.00:10.00:33.00:56.00, N/P 42; Fluc-mRNA
Answers are plain numbers.

Sample answers from the record:
CCCCCCCCCCNC(=O)C(O)CN(CCCN(C)CCCN(CC(O)C(=O)NCCCCCCCCCC)CC(O)C(=O)NCCCCCCCCCC)CC(O)C(=O)NCCCCCCCCCC (centres unmarked) [Compound L0265]
4.11E+06
CCCCCCC(CCCCCC)C(=O)OCCCCCCOC(=O)C(O)CN(C)CCN(C)CCN(C)CC(O)C(=O)OCCCCCCOC(=O)C(CCCCCC)CCCCCC (centres unmarked) [Compound L0291]
2.32E+07
CCCCCCCCCCOC(=O)C(O)CN(CCCN(C)CCCN(CC(O)C(=O)OCCCCCCCCCC)CC(O)C(=O)OCCCCCCCCCC)CC(O)C(=O)OCCCCCCCCCC (centres unmarked) [Compound L0313]
6.52E+07
CCCCCCCCCCCCNCC(O)CN(CCCCCN(C)CCCCCN(CC(O)CNCCCCCCCCCCCC)CC(O)C(=O)NCCCCCCCCCCCC)CC(O)C(=O)NCCCCCCCCCCCC (centres unmarked) [Compound L0303]
2.70E+06

Please look at the following molecule next.
Asked: Which IVIS reading was recorded for the molecule CCCCCCC(CCCCCC)C(=O)OCCCCCCOC(=O)C(O)CN(CCCN(C)CCCN(CC(O)C(=O)OCCCCCCOC(=O)C(CCCCCC)CCCCCC)CC(O)C(=O)OCCCCCCOC(=O)C(CCCCCC)CCCCCC)CC(O)C(=O)OCCCCCCOC(=O)C(CCCCCC)CCCCCC (centres unmarked) [Compound L0293] ?
Given back: 2.43E+08

---

Test: Particle size and PDI of nucleic acid lipid nanoparticle preparations by dynamic light scattering
Format: physicochemical
Details: DMG-PEG2000:DSPC:Chol:compound 1.00:10.00:33.00:56.00, N/P 42
I'd appreciate it if you could supply PDI values for the items below.
Give bare numbers.

CCCCCCCCCCNC(=O)C(O)CN(CCCN(C)CCCN(CC(O)C(=O)NCCCCCCCCCC)CC(O)C(=O)NCCCCCCCCCC)CC(O)C(=O)NCCCCCCCCCC (centres unmarked)
0.08
CCCCCCC(CCCCCC)C(=O)OCCCCCCOC(=O)C(O)CN(CCCN(C)CCCN(CC(O)C(=O)OCCCCCCOC(=O)C(CCCCCC)CCCCCC)CC(O)C(=O)OCCCCCCOC(=O)C(CCCCCC)CCCCCC)CC(O)C(=O)OCCCCCCOC(=O)C(CCCCCC)CCCCCC (centres unmarked)
0.10
CCCCCCC(CCCCCC)C(=O)OCCCCCCOC(=O)C(O)CN(C)CCN(C)CCN(C)CC(O)C(=O)OCCCCCCOC(=O)C(CCCCCC)CCCCCC (centres unmarked)
0.13
CCCCCCCCCCCCNCC(O)CN(CCCCCN(C)CCCCCN(CC(O)CNCCCCCCCCCCCC)CC(O)C(=O)NCCCCCCCCCCCC)CC(O)C(=O)NCCCCCCCCCCCC (centres unmarked)
0.09

Please look at the following compound next.
Asked: Which PDI reading was recorded for the compound CCCCCCCCCCOC(=O)C(O)CN(CCCN(C)CCCN(CC(O)C(=O)OCCCCCCCCCC)CC(O)C(=O)OCCCCCCCCCC)CC(O)C(=O)OCCCCCCCCCC (centres unmarked) ?
Given back: 0.17

---

Experiment: Particle size and PDI of nucleic acid lipid nanoparticle preparations by dynamic light scattering
Format: physicochemical
Conditions: DMG-PEG2000:DSPC:Chol:compound 1.40:11.15:38.95:48.50, N/P 20
measurement-kind: PDI
Numbers only.

Sample answers from the record:
CCCCCCCCCCCCOC(=O)C(O)CN(CCCCCCCN(CC(O)C(=O)OCCCCCCCCCCCC)CC(O)C(=O)OCCCCCCCCCCCC)CC(O)C(=O)OCCCCCCCCCCCC (centres unmarked)
0.40
CCCCCCCC/C=C\CCCCCCCCNC(=O)C(O)CN(C)CCN(C)CCN(C)CC(O)C(=O)NCCCCCCCC/C=C\CCCCCCCC (centres unmarked)
0.16
CCCCCCOCOCCCCCCOC(=O)C(O)CN(CCOCCN(CC(O)C(=O)OCCCCCCOCOCCCCCC)CC(O)C(=O)OCCCCCCOCOCCCCCC)CC(O)C(=O)OCCCCCCOCOCCCCCC (centres unmarked)
0.10
CCCCCCCCCCNC(=O)C(O)CN(CCOCCN(CC(O)C(=O)NCCCCCCCCCC)CC(O)C(=O)NCCCCCCCCCC)CC(O)C(=O)NCCCCCCCCCC (centres unmarked)
0.14
CCCCCCCCCCCCNC(=O)C(O)CN(CCOCCN(CC(O)C(=O)NCCCCCCCCCCCC)CC(O)C(=O)NCCCCCCCCCCCC)CC(O)C(=O)NCCCCCCCCCCCC (centres unmarked)
0.14
CCCCCCCCCCNC(=O)C(O)CN(CCCCCN(CC(O)C(=O)NCCCCCCCCCC)CC(O)C(=O)NCCCCCCCCCC)CC(O)C(=O)NCCCCCCCCCC (centres unmarked)
0.10
CCCCCCOCOCCCCCCOC(=O)C(O)CN(CCOCCOCCN(CC(O)C(=O)OCCCCCCOCOCCCCCC)CC(O)C(=O)OCCCCCCOCOCCCCCC)CC(O)C(=O)OCCCCCCOCOCCCCCC (centres unmarked)
0.18
CCCCCCCCCCNC(=O)C(O)CN(CCOCCOCCN(CC(O)C(=O)NCCCCCCCCCC)CC(O)C(=O)NCCCCCCCCCC)CC(O)C(=O)NCCCCCCCCCC (centres unmarked)
0.12

// batch mode: one PDI value per listed entry
1. CCCCCCCCCCCCOC(=O)C(O)CN(CCOCCN(CC(O)C(=O)OCCCCCCCCCCCC)CC(O)C(=O)OCCCCCCCCCCCC)CC(O)C(=O)OCCCCCCCCCCCC (centres unmarked)
2. CCCCCCCCCCCCNC(=O)C(O)CN(CCCCCN(CC(O)C(=O)NCCCCCCCCCCCC)CC(O)C(=O)NCCCCCCCCCCCC)CC(O)C(=O)NCCCCCCCCCCCC (centres unmarked)
3. CCCCCCCCCCOC(=O)C(O)CN(CCCCCCCN(CC(O)C(=O)OCCCCCCCCCC)CC(O)C(=O)OCCCCCCCCCC)CC(O)C(=O)OCCCCCCCCCC (centres unmarked)

Given back:
1. 0.12
2. 0.25
3. 0.48

---

Test system: mice
Assay: In vivo delivery of FLuc-mRNA lipid nanoparticles in mice, in vivo imaging (IVIS)
Conditions: Fluc-mRNA LNP; route IV; organ: body; formulation, molar ratio and N/P as in the table
measurement-kind: IVIS
Give bare numbers.

CCCCCCCCCCOC(=O)CCCNC(=O)C(O)CN(CCCN(C)CCCN(CC(O)C(=O)NCCCC(=O)OCCCCCCCCCC)CC(O)C(=O)NCCCC(=O)OCCCCCCCCCC)CC(O)C(=O)NCCCC(=O)OCCCCCCCCCC (centres unmarked) [Compound L0385]
8.17E+07

Asked: Param readout= IVIS; system= mice; entry= CCCCCCCC(CCCCCCC)OC(=O)CCCNC(=O)C(O)CN(CCN(C)CCN(CC(O)C(=O)NCCCC(=O)OC(CCCCCCC)CCCCCCC)CC(O)C(=O)NCCCC(=O)OC(CCCCCCC)CCCCCCC)CC(O)C(=O)NCCCC(=O)OC(CCCCCCC)CCCCCCC (centres unmarked) [Compound L0383] ; returns value.
Given back: 2.00E+09
